From: the supplement of paper PMC7156485

- Tested on: TDF
- test.summary: H1.0 immunofluorescence intensity relative to DMSO (% of DMSO); higher = stronger H1.0 induction, active = 120 or more
- condition.description: concentration: 10 µM; 24 h
So I've got a bunch of compounds here, and I need their H1.0 immunofluorescence intensity values.
Numbers only.

Recorded results for 5 compounds are shown here.
compound: Cl.OC(CCN1CCCCC1)(c1ccccc1)C1CCCCC1 (centres undefined) [Trihexyphenidyl hydrochloride]
H1.0 immunofluorescence intensity: 94

compound: CC(C)C1CCC(C(=O)NC(Cc2ccccc2)C(=O)O)CC1 (centres undefined) [Nateglinide]
H1.0 immunofluorescence intensity: 96.1

compound: COc1cc(C(=O)OCCCN2CCCN(CCCOC(=O)c3cc(OC)c(OC)c(OC)c3)CC2)cc(OC)c1OC [Dilazep]
H1.0 immunofluorescence intensity: 103

compound: CCCCCC=CC=CC(O)CCCCCCCC(=O)O (racemic)
H1.0 immunofluorescence intensity: 103

compound: CCN1CCN(C(=O)NC(C(=O)NC2C(=O)N3C2SC(C)(C)C3C(=O)O)c2ccccc2)C(=O)C1=O (centres undefined) [Piperacillin]
H1.0 immunofluorescence intensity: 95.4

# batch: return H1.0 immunofluorescence intensity for each of the 6 compounds below
1. CN(C)c1ccnc2sc3c(=O)n(N4CCCCCC4)cnc3c12
2. CCCCCC(O)C=CC=CCCCCCCCC(=O)O (racemic)
3. CCN(CC)CCCC(C)Nc1ccnc2cc(Cl)ccc12.O=P(O)(O)O.O=P(O)(O)O (centres undefined) [Chloroquine diphosphate]
4. COc1ccc2c(c1)c(CC(=O)N1CCOCC1)c(C)n2C(=O)c1ccc(Cl)cc1 [Indomethacin morpholinylamide]
5. COc1cc(C(=O)OCCC[NH+]2CCC[NH+](CCCOC(=O)c3cc(OC)c(OC)c(OC)c3)CC2)cc(OC)c1OC.[Cl-].[Cl-] [Dilazep hydrochloride]
6. O=C(Nc1ccc(Cl)cc1)Nc1cccc(-c2cccc(N3CCCC3)n2)c1

[A]
91
95.9
94.7
90.6
108
98.6

Batch of 2 compounds: report H1.0 immunofluorescence intensity for each.
1. Cc1[nH]c(C=C2C(=O)Nc3ccc(S(=O)(=O)N(C)c4cccc(Cl)c4)cc32)c(C)c1C(=O)N1CCN(C)CC1 [Met Kinase Inhibitor]
2. CCC=CCC=CCC=CCC=CC=CC(O)CCCC(=O)O (racemic)

[A]
1: 92; 2: 103

[Q] Fill in: H1.0 immunofluorescence intensity of CC[C@H](NC(=O)c1c(O)c(-c2ccccc2)nc2ccccc12)c1ccccc1 is ___
[A] 97.8

* * *

So I've got a bunch of compounds here, and I need their cell number values.
- System: HCC1569
- test.summary: cell number relative to DMSO (% of DMSO); higher = more cells (less growth inhibition / toxicity)
- condition.description: concentration: 10 µM; 24 h
Numbers only.

compound: COc1cc(/C=C/C(=O)CC(=O)/C=C/c2ccc(O)cc2)ccc1O
cell number: 66.5

compound: Cl.Cl.Cl.NCCCCNCCCN [Spermidine trihydrochloride]
cell number: 99.7

compound: C1CCC(C(CC2CCCCN2)C2CCCCC2)CC1.O=C(O)C=CC(=O)O (stereo unspecified)
cell number: 19

Provide cell number for all items below, preserving their order.
1. O=C(O)c1cccnc1C(=O)O
2. O=C(NCCCNc1nc(Nc2cccc(NC(=O)N3CCCC3)c2)ncc1I)c1cccs1

[A]
1. 106
2. 62

[Q] Given COc1ccc(/C=C\c2cc(OC)c(OC)c(OC)c2)cc1OP(=O)([O-])[O-].[Na+].[Na+] , state its recorded cell number.
[A] 57.8

* * *

- Tested on: HCC1569
- test.summary: cell number relative to DMSO (% of DMSO); higher = more cells (less growth inhibition / toxicity)
- condition.description: concentration: 10 µM; 24 h
measure.name: cell number
One number for each entry.

molecule: COc1ccccc1N1CCN(CCN(C(=O)c2ccc(I)cc2)c2ccccn2)CC1.Cl [p-MPPI hydrochloride]
measure.name: cell number
reported.value: 97.4
//
molecule: CC12CCC3c4ccc(O)cc4CCC3C1CCC2=O (stereo not given)
measure.name: cell number
reported.value: 102
//
molecule: CC1(C)CCC(NC(=O)C(N)CCC(=O)O)CC1 (stereo not given)
measure.name: cell number
reported.value: 103
//
molecule: O=C(O)CCCC=CCC1C(O)CC(O)C1C=CC(O)COc1cccc(Cl)c1.[Na] (stereo not given)
measure.name: cell number
reported.value: 99.8
//
molecule: CCNC(=O)CC[C@H](N)C(=O)O
measure.name: cell number
reported.value: 103
//
molecule: CCN(c1nc(N)c(C(=O)N=C(N)N)nc1Cl)C(C)C [5-(N-Ethyl-N-isopropyl)amiloride]
measure.name: cell number
reported.value: 103

Please go through the list and note cell number for each molecule.
1. COc1cc(C(C)=O)cc(-c2cc(C(C)=O)cc(OC)c2O)c1O
2. CC1(C)SC2C(NC(=O)C(N)c3ccccc3)C(=O)N2C1C(=O)O (stereo not given)
3. CCCCCC=CCC=CCC(O)C=CC=CCCCC(=O)O (stereo not given)
4. CN(C)CCC(c1ccc(Br)cc1)c1ccccn1.O=C(O)C=CC(=O)O (racemic)
5. CCOC(=O)C1=CC2(CC)CCCN3CCc4c(n1c1ccccc41)C32 (stereo not given)

[A]
100
103
102
101
101

* * *

Assignment: determine reported cell number for the given molecules.
- Tested on: TDF
- test.summary: cell number relative to DMSO (% of DMSO); higher = more cells (less growth inhibition / toxicity)
- condition.description: concentration: 10 µM; 24 h
One number for each entry.

Take a look at these entries with their results.
molecule: C#CCNCc1cc2cc(OCc3ccccc3)ccc2[nH]1
target.under.test: TDF
cell number: 91

molecule: CCCCCCC(O)CC=CCCCCCCCC(=O)O (stereo not drawn)
target.under.test: TDF
cell number: 104

Each of the following entries comes with a recorded value; kindly state cell number for each.
1. COc1ccc2c(c1)CCC1C2CCC2(C)C(NCCCCCCN3C(=O)C=CC3=O)CCC12 (stereo not drawn)
2. NS(=O)(=O)Cc1noc2ccccc12 [Zonisamide]
3. Cc1ccccc1C(=O)c1ccc(Nc2ccc(Br)cc2N)cc1Cl

[A]
1: 111; 2: 94.5; 3: 107

Here are 3 molecules. What values of cell number were reported for them?
1. COc1ccc(CC(N)C(=O)NC2C(CO)OC(n3cnc4c(N(C)C)ncnc43)C2O)cc1 (stereo not drawn)
2. CCCCCC=CC=CC(O)CCCCCCCC(=O)O (racemic)
3. CCN(CC)C(=O)c1ccc(Nc2nc(OCC3CCCCC3)c3[nH]cnc3n2)cc1

[A]
[99.2, 96.8, 51.1]

* * *

I'd appreciate it if you could supply cell number values for the items below.
- Test system: HCC1569
- test.summary: cell number relative to DMSO (% of DMSO); higher = more cells (less growth inhibition / toxicity)
- condition.description: concentration: 10 µM; 24 h
Answers are plain numbers.

molecule: CC12CC3CC(C)(C1)CC(N)(C3)C2.Cl [Memantine hydrochloride]
reported.value: 106
//
molecule: CCCCCCCCCCCC=CCCCCCC(=O)O [7(Z)-Nonadecenoic acid]
reported.value: 97.8

Record cell number for all entries; do not skip any.
1. CCCCCC=CCC(O)C=CC=CC=CC(O)CCCC(=O)O [5(S),12(R)-DIHETE all trans]
2. CN(C)c1ccc(O)c2c1CC1CC3C(N(C)C)C(=O)C(C(N)=O)=C(O)C3(O)C(=O)C1=C2O (stereo not drawn)
3. CCCCCCC=CC=CCCCCCCCC(=O)O [9(Z), 11(Z)-octadecadienoic acid]
4. O=P(O)(O)C(O)(Cn1ccnc1)P(=O)(O)O
5. CC1C(=O)N=C2Nc3cccc(Cl)c3CN21 (stereo not drawn)
6. COc1cc(Cc2cnc(N)nc2N)cc(OC)c1OC

[A]
1. 99.8
2. 107
3. 99.8
4. 99
5. 111
6. 99

* * *

- System: HCC1569
- test.summary: cell number relative to DMSO (% of DMSO); higher = more cells (less growth inhibition / toxicity)
- condition.description: concentration: 10 µM; 24 h
measure.name: cell number
Numbers only.

Example results:
molecule: CC[C@H](C(=O)Nc1ccccc1N1CCCC1)c1ccccc1 [(2S)-2-Phenyl-N-[2-(1-pyrrolidinyl)phenyl]butanamide]
cell number: 101
//
molecule: NCC1OC(OC2C(N)CC(N)C(OC3OC(CO)C(O)C(N)C3O)C2O)C(N)CC1O (stereo unspecified) [Tobramycin (free base)]
cell number: 103

Below is a list of molecules. For each, state its recorded cell number.
1. CCCCCC=CCC=CCCCCCCCCC(=O)O [10(Z),13(Z)-Nonadecadienoic acid]
2. O=Nc1ccc2oc(=O)ccc2c1
3. CS(=O)(=O)O.Cc1c(O)cccc1C(=O)NC(CSc1ccccc1)C(O)CN1CC2CCCCC2CC1C(=O)NC(C)(C)C (stereo unspecified) [Nelfinavir mesylate]

[A]
1. 98.3
2. 100
3. 102

[Q] Fill blank: measured cell number of the molecule c1coc(CNc2ncnc3nc[nH]c23)c1 is ____.
[A] 103
